The following binders are listed with their measured t½ values.
- Target Desc: T1, hRET.mFc (human)
- T1 construct: also called dimeric human RET
- Test Method Notes: SPR Biacore T200, mAb capture, 37 C
Only the number, expressed in min, is required.

Consider the reported t½ for these binders:
Binder	Result Number
H4H8067P (antibody, human IgG4, V domains shown, human IgG4 Fc (H4H prefix)) VH: QVQLVESGGGVVQPGRSLRLSCVASGFTFSNYGMHWVRQAPGKGLEWVALIWYDGSNKYFADSVKGRFTISRDNSKRMMFLEMNSLRAEDTAIYYCTRDRLFDFWGQGTLVTVSS VL: AIQMTQSPSSLSASVGDRVSITCRASQDIRHDLGWFHQKPGKAPKLLIYAASTLQSGVPSRFGGSGSGTDFTLTITSLQPEDFGTYYCLQDYNYPATFGQGTRLEIK	25
H4H8076P (antibody, human IgG4, V domains shown, human IgG4 Fc (H4H prefix)) VH: QVQLQQSGPGLVKPSQTLSLTCAISGDSVSSNSVAWNWIRQSPSRGLEWLGRTYYRSNWYNTYAVSVKSRITIDPDTSKNQFSLQLNSVTPEDTALYYCARGHRYSGSYFDYWGQGTLVTVSS VL: DIQMTQSPSSLSASVGDRVTITCRASQNINSYFNWYQQKPGKAPKLLIYAASSLQSGVPSRFSGGGSGTDFTLTISSLQPEDFATYYCQQTYTIPWTFGQGTKVEIK	17
H4H8071P (antibody, human IgG4, V domains shown, human IgG4 Fc (H4H prefix)) VH: EVQLVESGGGLVQPGGSLRLSCAASGFTFTTYFMSWVRQAPGKGLEWVSGISGSGTSTFYVDSMKGRFTISRDNSKNTLYLQMNSLRVEDTAVYFCAKENTYGHFDFWGQGTLVTVSS VL: DIQLTQSPSFLSASVGDRVTITCWASQDISSHLAWYQQKPGKAPKVLIYDASTLQSGVPSRISGSGSGTEFTLTISSLQPEDFAAYYCQQLDGYPYTFGQGTKLEIK	37
H4H8046P (antibody, human IgG4, V domains shown, human IgG4 Fc (H4H prefix)) VH: QVQLVQSRDEVKKPGASVKVSCKASGYTFTTYGISWVRQAPGQGLEWMGWINTYNGDTNYAQKVQDRVIMTTDTSTSTAYMELRSLRSDDTAVYFCAGARPLGGRRAFDIWGQGTMVTVSS VL: DIQMTQSPSSLSASVGDRVTITCRASQGISHYLAWYQQKPGKVPKLLIYAASTLQSGVPSRFSGSGSGTDFTLTISSLQPEDVATYYCQKYNSVPWTFGQGTKVEIK	17

Attention now turns to another entry.
Tell me the measured t½ of H4H8062P (antibody, human IgG4, V domains shown, human IgG4 Fc (H4H prefix)) VH: EVQLVESGGGLVQPGGSLRLSCSVSGFIFKNYAMRWVRQAPGKGLEWVSGISGSGGITYYADSVRGRVTISRDNSKNTLDLQMTNLRAEDTAVYYCAKAEYSSSGAYFDYWGQGTLVTVSS VL: DIQMTQSPSSLSASVGDRVTITCRASQSIHNYLNWYLQRPGKAPKLLVYAASSLQSGVPSRFSGRGSGTDFTLTISSLQPEDFATYYCQQSYSAPYSFGQGTKLEIK , please.
13
